Attribution: patent US20250333467A1

Target: T1, human RXFP1 (human, UniProt Q9HBX9 1-757)
T1 sequence (looked up): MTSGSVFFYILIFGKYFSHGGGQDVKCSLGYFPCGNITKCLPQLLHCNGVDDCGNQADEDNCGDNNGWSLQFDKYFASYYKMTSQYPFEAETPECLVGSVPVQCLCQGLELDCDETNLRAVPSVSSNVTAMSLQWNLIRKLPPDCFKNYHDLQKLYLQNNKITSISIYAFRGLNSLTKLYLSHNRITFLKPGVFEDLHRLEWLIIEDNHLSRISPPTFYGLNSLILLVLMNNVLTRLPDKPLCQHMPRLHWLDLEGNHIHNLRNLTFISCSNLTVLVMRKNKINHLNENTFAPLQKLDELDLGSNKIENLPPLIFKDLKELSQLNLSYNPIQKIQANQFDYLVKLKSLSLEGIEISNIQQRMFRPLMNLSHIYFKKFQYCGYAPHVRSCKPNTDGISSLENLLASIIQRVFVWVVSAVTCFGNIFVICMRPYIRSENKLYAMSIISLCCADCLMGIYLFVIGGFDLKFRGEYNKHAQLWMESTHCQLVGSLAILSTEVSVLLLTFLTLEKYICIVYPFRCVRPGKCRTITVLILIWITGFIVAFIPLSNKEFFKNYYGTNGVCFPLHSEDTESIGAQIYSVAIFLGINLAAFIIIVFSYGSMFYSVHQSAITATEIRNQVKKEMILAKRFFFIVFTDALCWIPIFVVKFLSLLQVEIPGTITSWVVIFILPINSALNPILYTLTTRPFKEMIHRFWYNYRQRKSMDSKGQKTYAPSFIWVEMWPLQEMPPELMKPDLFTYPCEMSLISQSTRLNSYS
Test: cell-based or functional assay
ENDPOINT: Potency (cAMP, transient hRXFP1 in HEK293) (nM)
API: value field is a number in nM; no unit string.

[
  {
    "BINDER": "SEQ ID NO: 127 (Fc fusion) DKTHTCPPCPAPEAAGGPSVFLFPPKPKDTLMISRTPEVTCVVVDVSHEDPEVKFNWYVDGVEVHNAKTKPREEQYNSTYRVVSVLTVLHQDWLNGKEYKCKVSNKALAAPIEKTISKAKGQPREPQVYTLPPSRDELTKNQVSLTCLVKGFYPSDIAVEWESNGQPENNYKTTPPVLDSDGSFFLYSKLTVDKSRWQQGNVFSCSVLHEALHSHYTQKSLSLSPGEGGSDSYQEEVIKLCGRELVRAQIAICGKSTASDAAGAEAEAGARQLYSALANKCCYVGCTKRSLAQFC",
    "UNIT_STRING": "nM",
    "MEASURED": 32
  },
  {
    "BINDER": "SEQ ID NO: 128 (Fc fusion) DKTHTCPPCPAPEAAGGPSVFLFPPKPKDTLMISRTPEVTCVVVDVSHEDPEVKFNWYVDGVEVHNAKTKPREEQYNSTYRVVSVLTVLHQDWLNGKEYKCKVSNKALAAPIEKTISKAKGQPREPQVYTLPPSRDELTKNQVSLTCLVKGFYPSDIAVEWESNGQPENNYKTTPPVLDSDGSFFLYSKLTVDKSRWQQGNVFSCSVLHEALHSHYTQKSLSLSPGEGGSDSYQEEVIKLCGRELVRAQIAICGKSTASDAAGAEAEAGARQLYSALANKCCKVGCTKRSLAQFC",
    "UNIT_STRING": "nM",
    "MEASURED": 23.2
  },
  {
    "BINDER": "SEQ ID NO: 123 (Fc fusion) DKTHTCPPCPAPEAAGGPSVFLFPPKPKDTLMISRTPEVTCVVVDVSHEDPEVKFNWYVDGVEVHNAKTKPREEQYNSTYRVVSVLTVLHQDWLNGKEYKCKVSNKALAAPIEKTISKAKGQPREPQVYTLPPSRDELTKNQVSLTCLVKGFYPSDIAVEWESNGQPENNYKTTPPVLDSDGSFFLYSKLTVDKSRWQQGNVFSCSVLHEALHSHYTQKSLSLSPGKGGSDSWQEEVIKLCGRELVRAQIAICGKSTASDAAGAEAEAGARQLYSALANKCCYVGCTKRSLAQFC",
    "UNIT_STRING": "nM",
    "MEASURED": 11.7
  }
]

q: What does the record list as Potency (cAMP, transient hRXFP1 in HEK293) for SEQ ID NO: 119 (Fc fusion) DKTHTCPPCPAPEAAGGPSVFLFPPKPKDTLMISRTPEVTCVVVDVSHEDPEVKFNWYVDGVEVHNAKTKPREEQYNSTYRVVSVLTVLHQDWLNGKEYKCKVSNKALAAPIEKTISKAKGQPREPQVYTLPPSRDELTKNQVSLTCLVKGFYPSDIAVEWESNGQPENNYKTTPPVLDSDGSFFLYSKLTVDKSRWQQGNVFSCSVLHEALHSHYTQKSLSLSPGKGGSDSYQEEVIKLCGRELVRAQIAICGKSTASDAAGAEAEAGARQLYSALANKCCHVGCTKRSLAQFC ?
a: 4.9
